// EC50 lookup, one value per entry
Target System: FXR (Homo sapiens, UniProt Q96RI1)
Construct: expressed in transfected cells; host or cells: HEK293T
Sequence (Q96RI1 222-486): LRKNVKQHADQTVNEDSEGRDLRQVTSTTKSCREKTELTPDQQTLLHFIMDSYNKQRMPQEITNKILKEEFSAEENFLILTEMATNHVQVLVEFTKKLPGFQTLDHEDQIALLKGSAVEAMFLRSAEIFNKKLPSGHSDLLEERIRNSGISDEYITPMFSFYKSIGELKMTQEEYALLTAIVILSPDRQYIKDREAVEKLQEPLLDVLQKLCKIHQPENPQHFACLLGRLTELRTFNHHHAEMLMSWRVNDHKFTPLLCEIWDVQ
Assay: FXR agonistic activity by reporter gene (pGAL4-FXR-LBD / pG5-Luc, Dual-Glo luciferase) in HEK293T cells
Type: cell-based
Condition: HEK293T reporter gene assay; read-out: EC50 values (FXR agonistic activity)

>>> df
                                   compound  data_value
0  [2H]C([2H])(OC1CC2CCC(C1)N2c1ccc(-c2noc(=O)[nH]2)cc1)c1c(-c2c(Cl)cccc2Cl)noc1C1CC1 (centres unmarked)      < 5 nM

Let's switch to this compound now.
Please give the measured EC50 for this compound: [2H]C([2H])(OC1CC2CCC(C1)N2c1ccc(-c2noc(=O)[nH]2)nc1)c1c(-c2c(Cl)cccc2Cl)noc1C1CC1 (centres unmarked) < 5 nM

* * *

Assay: in vivo
Condition: mouse, po, 3 mg/kg
Measured Attribute: AUC(0-t) at 7 h (ng·h/mL)

1. [2H]C([2H])(O[C@H]1C[C@H]2CC[C@@H](C1)N2c1ccc(-c2noc(=O)[nH]2)c(F)c1)c1c(-c2ccccc2C(F)(F)F)noc1C1CC1
2. O=c1[nH]c(-c2ccc(N3C4CCC3CC(OCc3c(-c5ccccc5C(F)(F)F)noc3C3CC3)C4)cc2F)no1 (centres unmarked)
Higher AUC(0-t) at 7 h between 1 and 2 ? Refer to your chosen item by its label in the answer. 1
(1: 587 ng·h/mL, 2: 318 ng·h/mL)

* * *

Target System: FXR (Homo sapiens, UniProt Q96RI1)
Construct: expressed in transfected cells; host or cells: HEK293T
Assay: FXR agonistic activity by reporter gene (pGAL4-FXR-LBD / pG5-Luc, Dual-Glo luciferase) in HEK293T cells
Format: cell-based
Condition: HEK293T cells co-transfected with pGAL4-FXR-LBD, pG5-Luc, phRL-TK; 24 h treatment; read-out: Cellular Level Activity EC50(nM) of FXR
List of EC50 values.

Reference set, count: 6
                                   compound  data_value
0  [2H]C([2H])(OC1CC2CCC(C1)N2c1ccc(-c2noc(=O)[nH]2)cc1)c1c(-c2c(Cl)cccc2Cl)noc1C1CC1 (stereo not shown)      < 5 nM
1  [2H]C([2H])(OC1CC2CCC(C1)N2c1ccc(-c2noc(=O)[nH]2)c(F)c1)c1c(-c2ccccc2OC(F)(F)F)noc1C1CC1 (stereo not shown)  5 to 10 nM
2  [2H]C([2H])(OC1CC2CCC(C1)N2c1ccc(-c2noc(=O)[nH]2)c(F)c1)c1c(-c2ccccc2C(F)(F)F)noc1C1CC1 (stereo not shown)  5 to 10 nM
3  [2H]C([2H])(OC1CC2CCC(C1)N2c1ccc(-c2noc(=O)[nH]2)nc1)c1c(-c2c(Cl)cccc2Cl)noc1C1CC1 (stereo not shown)      < 5 nM
4  [2H]C([2H])(OC1CC2CCC(C1)N2c1ccc(-c2noc(=O)[nH]2)c(OC)c1)c1c(-c2c(Cl)cccc2Cl)noc1C1CC1 (stereo not shown)  5 to 10 nM
5  [2H]C([2H])(OC1CC2CCC(C1)N2c1ccc(-c2noc(=O)[nH]2)c(C)c1)c1c(-c2c(Cl)cccc2Cl)noc1C1CC1 (stereo not shown)  5 to 10 nM

Record request: EC50 value, item [2H]C([2H])(OC1CC2CCC(C1)N2c1ccc(-c2noc(=O)[nH]2)c(C(F)(F)F)c1)c1c(-c2c(Cl)cccc2Cl)noc1C1CC1 (stereo not shown) 5 to 10 nM

* * *

Assay: in vivo
Condition: mouse, po, 3 mg/kg
Measured Attribute: Cmax (ng/mL)

A. [2H]C([2H])(O[C@H]1C[C@H]2CC[C@@H](C1)N2c1ccc(-c2noc(=O)[nH]2)c(F)c1)c1c(-c2ccccc2C(F)(F)F)noc1C1CC1
B. O=c1[nH]c(-c2ccc(N3C4CCC3CC(OCc3c(-c5ccccc5C(F)(F)F)noc3C3CC3)C4)cc2F)no1 (centres unmarked)
Looking at recorded values for Cmax, does A or B come in lower? To answer, give the label that identifies your chosen option. B
(B: 312 ng/mL, A: 555 ng/mL)

* * *

Assay: in vivo
Condition: mouse, po, 3 mg/kg
Measured Attribute: bioavailability (%)

I. [2H]C([2H])(O[C@H]1C[C@H]2CC[C@@H](C1)N2c1ccc(-c2noc(=O)[nH]2)c(F)c1)c1c(-c2ccccc2C(F)(F)F)noc1C1CC1
II. O=c1[nH]c(-c2ccc(N3C4CCC3CC(OCc3c(-c5ccccc5C(F)(F)F)noc3C3CC3)C4)cc2F)no1 (centres unmarked)
Please indicate which has the smaller reported bioavailability: I , or II . Bench note: the answer is the label of the chosen record. II
